Parameter: pEC50. Scope: all listed entries.
# system_under_test: RXRα Homodimer (Homo sapiens)
# experimental_protocol: RXRα homodimer activation (transactivation) assay
Scale note: pEC50 = -log10(concentration in M).

Check out these entries, answers already filled in.
CCc1cc2c(cc1\C(C)=C/C=C/C(C)=C/C(=O)O)CCCC2C (racemic) | 8.70
CC1=C(/C=C/C2=C(/C=C/C(C)=C/C(=O)O)CCC2)C(C)(C)CCC1 | 8.22
CC(/C=C/[C@@H]1C[C@@H]1c1ccc2c(c1)C(C)(C)CCC2(C)C)=C\C(=O)O (racemic) | 8.46
CC(/C=C/[C@@H]1C[C@@H]1c1ccc2c(c1)C(C)(C)CCC2(C)C)=C\C(=O)O (stereo in doubt) | 8.59
CC1=C(/C=C/c2sccc2/C=C/C(C)=C/C(=O)O)C(C)(C)CCC1 | 9.10

Query block: What value of pEC50 has been recorded for this entry: CC(/C=C/c1sccc1-c1ccc2c(c1)C(C)(C)CCC2(C)C)=C\C(=O)O
Result block: 8.60

Query block: What value of pEC50 has been recorded for this entry: CC(/C=C/c1ccccc1-c1ccc2c(c1)C(C)(C)CCC2(C)C)=C\C(=O)O
Result block: 8.22

Query block: What value of pEC50 has been recorded for this entry: CC1=C(/C=C/C2=C(/C=C/C(C)=C/C(=O)O)CCCCC2)C(C)(C)CCC1
Result block: 8.85

Query block: What value of pEC50 has been recorded for this entry: CC(/C=C/C1=C(c2ccc3c(c2)C(C)(C)CCC3(C)C)CCC1)=C\C(=O)O
Result block: 8.05

###

Parameter: IC50. Scope: all listed entries.
# system_under_test: RXRα (Homo sapiens)
# Sequence (P19793 1-462): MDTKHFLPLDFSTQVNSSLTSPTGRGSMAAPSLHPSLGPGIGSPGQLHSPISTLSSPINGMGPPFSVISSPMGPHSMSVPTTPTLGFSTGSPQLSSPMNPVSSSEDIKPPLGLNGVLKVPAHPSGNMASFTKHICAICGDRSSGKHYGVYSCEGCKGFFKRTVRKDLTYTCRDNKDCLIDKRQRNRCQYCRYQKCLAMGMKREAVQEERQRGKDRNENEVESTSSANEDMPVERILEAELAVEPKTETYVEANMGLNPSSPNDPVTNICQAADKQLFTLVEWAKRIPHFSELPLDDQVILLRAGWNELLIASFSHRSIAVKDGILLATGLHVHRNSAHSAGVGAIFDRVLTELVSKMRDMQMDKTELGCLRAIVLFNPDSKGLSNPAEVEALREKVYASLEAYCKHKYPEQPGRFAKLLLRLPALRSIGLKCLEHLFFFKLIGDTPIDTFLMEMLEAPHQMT
// return numeric value only (unit: nM, not printed)

CC1=C(/C=C/C2=C(/C=C/C(C)=C/C(=O)O)CCCCC2)C(C)(C)CCC1 | 110
CCCOc1c([C@@H]2C[C@@H]2/C=C/C(C)=C/C(=O)O)cc(C(C)(C)C)cc1C(C)(C)C (racemic) | 52
CCC1(CC)CCC(C)(C)c2cc(\C(C)=C/C=C/C(C)=C/C(=O)O)ccc21 | 680
CC(/C=C/[C@@H]1C[C@@H]1c1ccc2c(c1)C(C)(C)CCC2(C)C)=C\C(=O)O (stereo in doubt) | 110
C/C(=C/C=C/C(C)=C/C(=O)O)c1cc2c(cc1C)C(C)(C)CCCC2 | 184
CC(/C=C/c1sccc1-c1ccc2c(c1)C(C)(C)CCC2(C)C)=C\C(=O)O | 230
CCOc1c(\C(C)=C/C=C/C(C)=C/C(=O)O)cc(C(C)(C)C)cc1C(C)(C)C | 24
CC(/C=C/C1=C(c2ccc3c(c2)C(C)(C)CCC3(C)C)CCCC1)=C\C(=O)O | 330
CCCCCCCOc1c(\C(C)=C/C=C/C(C)=C/C(=O)O)cc(C(C)C)cc1C(C)C | 9

Query compound follows.
Query block: What value of IC50 has been recorded for this entry: CCCCOc1c(\C(C)=C/C=C/C(C)=C/C(=O)O)cc(C(C)(C)C)cc1C(C)(C)C
Result block: 30
